Biological target: T1, GDF15-HIS (ACROBiosystems, CAT #: GD5-H5149) (human, UniProt Q99988 197-308)
T1 construct: Bought protein; also called GDF15 (ACROBiosystems, GD5-H5149); human GDF15; not shown: His tag
T1 sequence (looked up): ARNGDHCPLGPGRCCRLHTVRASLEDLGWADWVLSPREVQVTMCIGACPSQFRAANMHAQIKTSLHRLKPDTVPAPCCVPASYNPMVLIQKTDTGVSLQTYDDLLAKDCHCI
Assay: BLI (ForteBio Octet), antibody immobilised, GDF15 200-6.25 nM
Can you tell me Kd for the items I'm about to list?
Give bare numbers, in nM.

| BINDER | MEASUREMENT KIND | RESULT |
| --- | --- | --- |
| A2 (murine anti-53A8) (antibody, V domains shown, Purified murine hybridoma antibody; also called murine antibody 53A8) VH: QVQLKESGPGILQPSQTLSLTCSFSGFSLSTSGMGVGWIRQPSGKGLEWLAHIRWDDVKRYNPALKSRLTISKDTSSSQIFLKIASVDTADTATYYCAQMAWDWFAYWGQGTLVTVSA VL: DIVMTQAQKFMSTSVGDRVSVTCKASQNVDTDVAWYQQKPGQSPKALIYSASYRYSGVPDRFTGSGSGTDFTLTITNVQSEDLAEYFCHQYNSYPTFGGGTKLEIK | Kd | 0.14 |
| A1 (murine anti-53E5) (antibody, V domains shown, Purified murine hybridoma antibody) VH: QVQLKESGPGILQPSQTLSLTCSFSGFSLSTSGMGVGWIRQPSGKGLEWLAHILWDDVKRYNPALKSRLTISKDSSNSQIFLKIASVDTADTATYYCVQMAWDWFAYWGQGTLVTVSA VL: DIVMTQAQKFMSTSVEDRVSVTCKASQNVDTNVAWYQQKPGQSPKALIYSASYRSSGVPDRFTGSGSGTDFTLTISNVQSEDLAEYFCQQYHSYPTFGGGTKLEIK | Kd | 0.085 |

Consider the additional binder presented here.
Look up Kd: A5 (murine anti-50G3) (antibody, V domains shown, Purified murine hybridoma antibody) VH: QVTLKESGPGILKPSQTLSLTCSFSGFSLSTSGMGVGWIRQPSGKGLEWLAHIWWNDDKYYNPSLKSHLTISKDTSRNQVFLMITSVDTADTATYYCARGAYDFFDYWGQGTTLTVSS VL: DIVMTQAQNFMSTSVGDRVSVTCKASQNVDTNVAWYQQKPGQSPKALIYSASYRYSGVPDRFTGSGSGTDFTLTISNVQSDDLADYFCQQYNTYPYTFGGGTKLEIK
0.162

Cited source for all entries: patent US20250092124A1
